Target: T1, interleukin-1β converting enzyme (ICE), as used in the enzyme assays (UniProt P29466 120-297; P29466 317-404, limits assumed)
T1 construct: also called IL-1β Converting Enzyme
T1 sequence (looked up) 1: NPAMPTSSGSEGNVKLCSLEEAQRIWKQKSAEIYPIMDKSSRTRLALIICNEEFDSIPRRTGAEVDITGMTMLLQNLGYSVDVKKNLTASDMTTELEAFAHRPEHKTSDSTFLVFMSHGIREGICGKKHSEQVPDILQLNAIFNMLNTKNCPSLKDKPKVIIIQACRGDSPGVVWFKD
T1 sequence (looked up) 2: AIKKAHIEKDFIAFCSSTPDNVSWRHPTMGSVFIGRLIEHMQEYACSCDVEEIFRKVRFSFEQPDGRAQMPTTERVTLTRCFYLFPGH
Test: ICE enzyme inhibition, UV-visible substrate Suc-YVAD-pNA
Starred links: 1 amine or outer side, 2 acyl side, 3 side chain; linkers in the order of their positions; H or OH if unused. Non-standard residues stand in square brackets, D forms with d. No end group written: not given here. *: point of attachment. Asp‑al = Asp with the carboxyl reduced to aldehyde (3-amino-4-oxobutanoic acid), O=C[C@H](CC(=O)[*:3])N[*:1]; Pro(4R-allyloxy) = 4(R)-allyloxyproline, C=CCO[C@@H]1C[C@@H](C(=O)[*:2])N([*:1])C1; X3 = (2,6-dichlorophenylmethyloxy)methyl ketone, Clc1cccc(Cl)c1COC*; X1 = 7‑methoxybenzoxazol‑2‑yl ketone, COc1cccc2nc(*)oc12; X4 = (2-chlorobenzyloxy)methyl ketone, Clc1ccccc1COC*; Pro(4-phenoxy) = 4-phenoxyproline
endpoint-name: pKi
Schema: pKi number; meaning minus log10 of the concentration expressed in molar units.

{"columns": ["binder", "reading"],
 "data": [
  ["Ac-YVAD-X4 (SMILES CC(=O)N[C@@H](Cc1ccc(O)cc1)C(=O)N[C@H](C(=O)N[C@@H](C)C(=O)N[C@@H](CC(=O)O)C(=O)COCc1ccccc1Cl)C(C)C, also called 89)", 7.74],
  ["Ac-YV[Pro(4R-allyloxy)][Asp‑al] (not fully specified (C-terminus), also called 85) [N-(N-Acetyl-tyrosinyl-valinyl-(4(R)-allyloxy prolinyl))-3(S)-amino-4-oxobutanoic acid]", 8.46]
]}

[Q] Look up pKi of Ac-YVAD-X3 (also: Asp-derived residue (R,S), also called 84b) and report it.
[A] 7.72

[Q] Look up pKi of Ac-YV[Pro(4-phenoxy)][Asp‑al] (not fully specified (C-terminus)) [N-(N-Acetyl-tyrosinyl-valinyl-(4-phenoxyprolinyl))-3-amino-4-oxobutanoic acid] and report it.
[A] 8.14

[Q] Look up pKi of Ac-YVAD-X1 (SMILES COc1cccc2nc(C(=O)[C@H](CC(=O)O)NC(=O)[C@H](C)NC(=O)[C@@H](NC(=O)[C@H](Cc3ccc(O)cc3)NC(C)=O)C(C)C)oc12, also called 69a) and report it.
[A] 7.96

Every entry's value here was drawn from patent US6420522.
